target: AMP-activated protein kinase, AMPK (Homo sapiens) (UniProt P54646+O43741+P54619+Q9UGJ0+Q9Y478+Q13131+Q9UGI9); test: AMP-dependent Kinase enzyme assay. An in vitro enzyme assay that detects ADP turnover that is directly proportional to AMPK activity. This uses naive AMPK that is activated during the assay with MK-8722; type: functional; design: scale not given: direction of the effect not stated beside the values; settings: 30 µM
Percent Effect values by entry
Hi! Could you send only the number? It should be in %, unit omitted.

// below: answered molecules
Cn1cc(CN2CCCn3cnc(COCC4CC4)c3C2)cn1 ... -1.37
COCC1CN(C(=O)c2ccnnc2)Cc2c1cnn2C (configuration not stated) ... 7.75
CCc1ncc2c(n1)CN(Cc1nnc(C)o1)CC2 ... -74

What does the record list as Percent Effect for CCc1nc(CN2CCCN(Cc3cnn(C)c3)CC2)no1 ? -1.06

Input CNC(=O)NC(=O)Cn1cc(-c2ccccc2)cn1 12.6
